The reported measurements were obtained from patent US20240417390A1.

Experiment: Solubility in water
Type: physicochemical
Settings: free base
Observed property: solubility

• Cc1c(N(C(=O)c2cc(-c3cc(Cl)ccc3C(=O)N3Cc4ccccc4C[C@H]3CN3CCOCC3)n(C)c2C)c2ccc(O)cc2)cc(C#N)n1C [Compound A] = < 10 µg/mL
